meta.source: patent US20180339041A1

measuredTarget: T1, C-terminally FLAG-tagged human Gas6 recombinant protein (hGas6-F) (human, UniProt Q14393 31-678, gamma-carboxylated glutamic acid residues in the Gla domain (producer cells co-express rat VKOR and human GGCX); positions not given)
T1 construct: also called human Gas6-F; human Gas6 protein
T1 sequence: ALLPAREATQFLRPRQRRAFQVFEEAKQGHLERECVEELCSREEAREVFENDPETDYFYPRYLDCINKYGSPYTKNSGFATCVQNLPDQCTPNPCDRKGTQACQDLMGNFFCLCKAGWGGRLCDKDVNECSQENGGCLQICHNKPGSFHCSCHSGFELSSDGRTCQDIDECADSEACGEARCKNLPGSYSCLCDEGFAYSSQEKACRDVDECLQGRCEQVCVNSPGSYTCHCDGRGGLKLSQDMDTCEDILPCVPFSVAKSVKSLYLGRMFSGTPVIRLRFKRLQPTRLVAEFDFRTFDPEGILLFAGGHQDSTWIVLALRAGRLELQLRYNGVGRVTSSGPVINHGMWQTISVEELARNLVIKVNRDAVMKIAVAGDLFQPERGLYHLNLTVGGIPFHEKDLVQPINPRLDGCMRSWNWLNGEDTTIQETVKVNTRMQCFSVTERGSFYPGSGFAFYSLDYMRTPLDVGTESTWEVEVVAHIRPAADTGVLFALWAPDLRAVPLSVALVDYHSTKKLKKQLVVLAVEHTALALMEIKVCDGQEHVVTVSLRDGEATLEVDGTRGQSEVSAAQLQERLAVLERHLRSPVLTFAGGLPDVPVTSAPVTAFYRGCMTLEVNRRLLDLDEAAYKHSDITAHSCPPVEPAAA
measurementDescription: SPR Biacore T100, captured antibody, Gas6 analyte, first test
pKd: −log10 of the molar value.
experimentalReadout: pKd

input: I would be grateful if you could share the reported pKd for KM5320 chimeric antibody (antibody, V domains shown, also called KM5320 chimera; A-01) VH: QIQLVQSGPELKKPGETVKISCKASGYTFTNYGMNWVKQAPGKGLKWMGWINTETGEPTYSDDFKGRFAFSLETSATTAYLQINNLRNEDMATYFCAREDGYYGTLDYWGQGTSVTVSS VL: SIVMTQTPKFLLVSAGDRVTITCKASQSVSNDVAWYQQKPGQSPKVLIYYASNRYTGVPDRFTGSGYGTDFTFTISTVQAEDLAVYFCQQDYSSPWTFGGGTKLEIK .
output: > 8.73

input: Follow-up item: hzKM5320 LV0HV0 antibody (antibody, V domains shown, Humanized; variant human IgG4 constant region (EU S228P, L235E, R409K), human kappa; also called A-02) VH: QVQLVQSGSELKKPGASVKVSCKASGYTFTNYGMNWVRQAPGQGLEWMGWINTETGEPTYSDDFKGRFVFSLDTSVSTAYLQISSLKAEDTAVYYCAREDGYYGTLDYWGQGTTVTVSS VL: DVVMTQSPDSLAVSLGERVTINCKASQSVSNDVAWYQQKPGQSPKLLIYYASNRYTGVPDRFSGSGSGTDFTLTISSLQAEDVAVYYCQQDYSSPWTFGQGTKLEIK
output: > 7.86

input: Follow-up item: hzKM5320 LV1bHV8 antibody (antibody, V domains shown, Humanized; variant human IgG4 constant region (EU S228P, L235E, R409K), human kappa; also called A-12) VH: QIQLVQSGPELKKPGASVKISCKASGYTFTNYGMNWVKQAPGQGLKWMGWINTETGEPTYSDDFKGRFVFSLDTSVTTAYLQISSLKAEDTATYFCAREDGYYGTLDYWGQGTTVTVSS VL: DVVMTQSPDSLAVSLGERVTINCKASQSVSNDVAWYQQKPGQSPKLLIYYASNRYTGVPDRFSGSGSGTDFTLTISSVQAEDVAVYYCQQDYSSPWTFGQGTKLEIK
output: > 7.96
